Could you please report measured melting point for the items listed next?

I am curious: what melting point value has been reported for COc1ccc(C2=NN(C3CCN(C(=O)CCN4C(=O)CCC4=O)CC3)C(=O)C2(C)C)cc1OC [Compound 19] ? 207 to 209 °C

I am curious: what melting point value has been reported for COc1ccc(C2=NN(C3CCN(C(=O)CN4C(=O)CCC4=O)CC3)C(=O)C2(C)C)cc1OC [Compound 2] ? 218 to 220 °C

I am curious: what melting point value has been reported for COc1ccc(C2=NN(C3CCN(C(=O)CN4C(=O)COCC4=O)CC3)C(=O)C2(C)C)cc1OC [Compound 1] ? 156 to 157 °C

I am curious: what melting point value has been reported for COc1ccc(C2=NN(C3CCN(C(=O)CN4C(=O)CS(=O)(=O)CC4=O)CC3)C(=O)C2(C)C)cc1OC [Compound 18] ? 146 to 148 °C

I am curious: what melting point value has been reported for COc1ccc(C2=NN(C3CCN(C(=O)CN4C(=O)Cc5ccccc54)CC3)C(=O)C2(C)C)cc1OC [Compound 20] ? 178 °C

I am curious: what melting point value has been reported for COc1ccc(C2=NN(C3CCN(C(=O)CN4CCCC4=O)CC3)C(=O)C2(C)C)cc1OC [Compound 16] ? 125 to 131 °C

I am curious: what melting point value has been reported for COc1ccc(C2=NN(C3CCN(C(=O)CN4C(=O)CCC4=O)CC3)C(=O)C2(C)C)cc1OCC1CC1 [Compound 5] ? 129 to 131 °C

###

# EXPERIMENTAL TARGET: PDE4B1 (Homo sapiens (Human), UniProt Q07343)
# Sequence (Q07343 whole entry): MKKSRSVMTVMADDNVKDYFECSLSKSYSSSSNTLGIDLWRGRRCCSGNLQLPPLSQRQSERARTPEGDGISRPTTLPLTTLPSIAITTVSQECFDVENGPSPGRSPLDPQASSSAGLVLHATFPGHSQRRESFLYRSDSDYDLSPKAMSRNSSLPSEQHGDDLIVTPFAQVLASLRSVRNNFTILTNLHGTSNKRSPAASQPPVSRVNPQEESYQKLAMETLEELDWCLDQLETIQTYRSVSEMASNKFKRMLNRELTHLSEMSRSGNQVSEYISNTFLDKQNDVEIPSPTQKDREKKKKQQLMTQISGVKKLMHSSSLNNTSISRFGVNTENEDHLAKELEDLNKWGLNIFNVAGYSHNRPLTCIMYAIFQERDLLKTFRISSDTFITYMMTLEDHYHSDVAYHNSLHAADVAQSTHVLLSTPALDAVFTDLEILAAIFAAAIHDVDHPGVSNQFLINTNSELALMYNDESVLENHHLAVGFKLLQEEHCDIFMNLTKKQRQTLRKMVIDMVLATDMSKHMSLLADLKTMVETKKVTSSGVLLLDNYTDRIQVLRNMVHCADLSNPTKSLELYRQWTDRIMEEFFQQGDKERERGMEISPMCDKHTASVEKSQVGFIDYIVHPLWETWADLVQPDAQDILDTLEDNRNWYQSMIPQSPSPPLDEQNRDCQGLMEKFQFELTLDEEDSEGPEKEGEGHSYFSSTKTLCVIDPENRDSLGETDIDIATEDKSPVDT
# PROTOCOL SUMMARY: Inhibition of PDE4 activity, [3H]cAMP SPA enzyme assay with recombinant PDE4B1
# Assay type: biochemical
# MEASUREMENT CONDITIONS: recombinant PDE4B1 expressed in SF21 cells, 0.5 μM cAMP, 37° C.
Could you please report measured PDE4 Inhibition [measured as −logIC50 (mol/l)] for the items listed next?

Please tell me: PDE4 Inhibition [measured as −logIC50 (mol/l)] of "COc1ccc(C2=NN(C3CCN(C(=O)CCN4C(=O)CCC4=O)CC3)C(=O)C2(C)C)cc1OC" , system PDE4B1 (Homo sapiens (Human), UniProt Q07343)? 7.48 −logIC50 (mol/l)

Please tell me: PDE4 Inhibition [measured as −logIC50 (mol/l)] of "CC1(C)C(=O)N(C2CCN(C(=O)CN3C(=O)CCC3=O)CC2)N=C1c1ccc(OC(F)F)c(OCC2CC2)c1" , system PDE4B1 (Homo sapiens (Human), UniProt Q07343)? 7.74 −logIC50 (mol/l)

Please tell me: PDE4 Inhibition [measured as −logIC50 (mol/l)] of "COc1ccc(C2=NN(C3CCN(C(=O)CN4C(=O)Cc5ccccc54)CC3)C(=O)C2(C)C)cc1OC" , system PDE4B1 (Homo sapiens (Human), UniProt Q07343)? 8.24 −logIC50 (mol/l)

Please tell me: PDE4 Inhibition [measured as −logIC50 (mol/l)] of "CCOc1cc(C2=NN(C3CCN(C(=O)CN4C(=O)CCC4=O)CC3)C(=O)C2(C)C)ccc1OC" , system PDE4B1 (Homo sapiens (Human), UniProt Q07343)? 7.65 −logIC50 (mol/l)

Please tell me: PDE4 Inhibition [measured as −logIC50 (mol/l)] of "COc1ccc(C2=NN(C3CCN(C(=O)CN4C(=O)CCC4=O)CC3)C(=O)C2(C)C)c2c1OC(C)(C)C2" , system PDE4B1 (Homo sapiens (Human), UniProt Q07343)? 8.53 −logIC50 (mol/l)

Please tell me: PDE4 Inhibition [measured as −logIC50 (mol/l)] of "COc1ccc(C2=NN(C3CCN(C(=O)CN4CCCC4=O)CC3)C(=O)C2(C)C)cc1OC" , system PDE4B1 (Homo sapiens (Human), UniProt Q07343)? 7.48 −logIC50 (mol/l)

Please tell me: PDE4 Inhibition [measured as −logIC50 (mol/l)] of "COc1ccc(C2=NN(C3CCN(C(=O)CN4C(=O)c5ccccc5C4=O)CC3)C(=O)C2(C)C)cc1OC" , system PDE4B1 (Homo sapiens (Human), UniProt Q07343)? 9.06 −logIC50 (mol/l)
